target: T1, Dimeric fibrinogen-like domain of human Ang-2 conjugated to human IgG1 (human); assay: SPR, hIgG1 antibody captured, room temp
T1 construct: also called Dimeric Human Ang-2FD; Human Ang-2FD-hFc
T1 sequence (chain, as listed by the source limits assumed): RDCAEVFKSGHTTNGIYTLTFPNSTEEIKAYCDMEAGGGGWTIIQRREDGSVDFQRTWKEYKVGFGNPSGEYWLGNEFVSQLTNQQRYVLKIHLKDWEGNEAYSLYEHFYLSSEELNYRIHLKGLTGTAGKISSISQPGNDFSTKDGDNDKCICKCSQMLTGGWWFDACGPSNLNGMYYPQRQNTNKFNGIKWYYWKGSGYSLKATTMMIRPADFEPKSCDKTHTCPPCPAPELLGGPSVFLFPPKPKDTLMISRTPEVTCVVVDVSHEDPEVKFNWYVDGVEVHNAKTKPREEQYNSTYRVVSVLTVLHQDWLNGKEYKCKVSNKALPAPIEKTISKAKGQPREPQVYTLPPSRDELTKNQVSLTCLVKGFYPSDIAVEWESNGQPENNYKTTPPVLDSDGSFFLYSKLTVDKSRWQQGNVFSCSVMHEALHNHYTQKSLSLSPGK
Mark true only for T1/2 values smaller than 2 h; exact matches and larger values are false.

H1H732N (antibody, V domains shown) VH: EVQLVESGGGLVRPGGSLRLSCAASGFTFTNAWMSWVRQAPGKGLEWIGQIKSKTDGGTIDYAAPVKGRFTVSRDDSENTLFLQMNSLKTEDTAVYYCAGNWNYVDFDYWGQGTLVTVSS VL: DIQMTQSPSSLSASVGDRVTITCRASQDIRNDLGWYQQKPGKAPKRLIYAASSLQGGVPSRFSGSGSGTEFTLTISSLQPEDFATYYCLQHNSYPFTFGPGTKVDIK	true
H1H724N (antibody, V domains shown) VH: QVQLVESGGGVVQPGRSLRLSCAASGFTLSNYGMHWVRQAPGKGLEWVAVIWHDGSNTYYADSVKGRFTISRDNSKNTLYLQMNSLRAEDTAVYYCTREGLDFWSGYYPNWFDPWGQGTLVTVSS VL: DIQMTQSPSSLSASVGDRVTITCRASQGIRNDLGWYQQKPGKAPKRLIYAASNLQGGVPSRFSGSGSGTEFTLTISSLQPEDFAAYYCLQHNIYPLTFGGGTKVEIK	true
H1H695P (antibody, V domains shown) VH: QVQLVESGGGVVQPGRSLRLSCAASGFTFSSYGMHWVRQAPGKGLEWVAVMWYDETNKYYADSVKGRFTISRDNSKNTLYLQMNSLRAEDTAVYYCARYSGYEDYYHGMDVWGQGTTVTVS VL: EIVMTQSPATPSVSPGERATLSCRASQSISSNLAWYQQKPGQAPRLLIYGASTRATGIPARFSGSGSGTEFTLTISSLQSEDFAVYYCQHYNNWITFGQGTRLEIK	false
H1H742N (antibody, V domains shown) VH: DVQLLESGGDLVQPGGSLRLSCEASGFTFRNYVMIWVRQAPGKGLEWVSGISNSGGTTHYTDSVKGRFTISRDNSKNTLYLQINSLRAEDTAVYYCAKGYLDTSLIEGNWFDPWGQGTLVTVSS VL: NIVMTQSPLSLPVTPGEPASISCRSSQSLLHSNGFNYLNWFLQKPGQSPQLLIYLGSNRASGVPDKFSGSGSGTDFTLNINRVEAEDVGIYFCMQTLQTPLTFGGGTKVEIK	true
H1H744N (antibody, V domains shown) VH: QVQLVQSGVEVKKPGASVKVSCKTSGYTFSNNGFSWVRQAPGQGLEWLGWISGYNGNTNYAQKFQGRVTMTTDTSTSTAYMELRTLRSDDTAVYYCARDQDYSNFHWLDPWGQGTLVTVAS VL: DIQMTQSPSSVSASVGDRVIITCRASQGLSSWLAWYQQKPGTAPKLLIHSASSLQTGVPSRFSGSGSGTEFALTINSLQPEDFGTYYCQQANSFPLTFGGGTRVEIK	false

(Q) Would you kindly verify if T1/2 of H1H691P (antibody, V domains shown) VH: EVQLVESGGGLVQPGRSLRLSCAASGFTFDDYAMHWVRQAPGKGLEWVSGISWNSGDIGYADSVKGRFTISRDNAKNSLYLQMNSLRAQDTALYYCAKAYGDYYYFYGMDVWGQGTTVTVS VL: EIVLTQSPGTLSLSPGERATLSCRASQSVSSSYLAWYQQKPGQAPRLLIFSASSRATGIPDRFSGSGSGTDFTLTISRLEPEDFAVYYCQQYDNSLTFGGGTKVEIK is strictly less than 2 h?
(A) true

(Q) Would you kindly verify if T1/2 of H1H696P (antibody, V domains shown) VH: QVQLVESGGGLVKPGGSLRLSCAASGFTFSDYYMSWIRQAPGKGLEWVSYISYTGRTIYYADSVKGRFTISRDNAKNSLYLQMNSLRAEDTAVYYCARDTDYGDFFDYWGQGTLVTVSS VL: DIQMTQSPSSLSASVGDRVTITCRASQGISNYLAWFQQKPGKAPKSLIYAASSLQSGVPSKFSGSGSGTDFTLTISSLQPEDFATYYCQQYNSYPLTFGGGTKVEIK is strictly less than 2 h?
(A) true

(Q) Would you kindly verify if T1/2 of H1H728N (antibody, V domains shown) VH: EVQLVESGGDLVQPGGSLRLSCTASGFTFSKYWMTWVRQAPGRGLEWVANIKEDGNEKYFLDSVKGRFTISRDNAKDLLFLQMNSLRGEDTAVYYCVRDRGIEVAGPFDYWGQGTLVTVSS VL: DIQMTQSPSTLSASVGDRVTVTCRASQTIINWLAWYQQKPGKAPKLLISKASSLESGVPSRFSGSGSGTEFTLTISSLQPDDFATYYCQQYNRYWTFGQGTMVEIK is strictly less than 2 h?
(A) true

(Q) Would you kindly verify if T1/2 of H1H750N (antibody, V domains shown) VH: QVKLVESGGGVVQPGRSLRVSCAASGFTFSSYGMHWVRQAPGKGLEWLAIIWYDGDNKYYSDSVKGRFTISRDNSKNTLYLQMNSLRAEDTAEYYCVRDASIASRFLDYWGQGTLVTVSS VL: DIQMTQSPSSLSASIGDRVTITCRATQDINNYLAWFQQKPGKAPKSLIYATSNLQSGVPSKFSGSGSGTDYTLTISSLQPEDFSTYYCQQYHSYPLTFGGGTKVEIK is strictly less than 2 h?
(A) false

(Q) Would you kindly verify if T1/2 of H1H704P (antibody, V domains shown) VH: QVQLVESGGDVVQPGRSLRLSCAASGFTFSSYGMHWVRQAPGKGLEWVAIIWYDGSNKYYADSVKGRFTISRDNSKNTLYLQMNSLRVEDTAVYSCARDFSISSRHFDYWGQGTLVTVSS VL: DIQMTQSPSSLSASVGDRVTITCRASQAINNYLAWFQQKPGKAPKSLIYATSNLQSGVPSQFSGSGSGTDYTLTISSLQPEDFATYYCQQYYIYPITFGQGTRLEIK is strictly less than 2 h?
(A) true

(Q) Would you kindly verify if T1/2 of H1H749N (antibody, V domains shown) VH: QVQLVESGGGVVQPGRSLRLSCAASGFTFSSYGMHWVRQAPGKGLEWVAVIWYDEFNKYYADSVKGRFTISRDNSKNTLYLQMNSLRAEDTAVYYCARERESGYSYGFDYWGQGTLVTVSS VL: EIVMTQSPATLSVSPGERATLSCRAGQSVSSNLAWYQQKPGQAPRLLIYGASTRATGIPARFSGSGSGTEFTLTISSLQSEDFAVYYCQQYNNWWTFGQGTKVEIK is strictly less than 2 h?
(A) true
